Where these numbers come from: patent US20260116987A1

Catalogue of ADCC (Fold Induction) values
tgt: Human CCR8 (C-C chemokine receptor type 8) expressed on CHO-S cells (human, UniProt P51685 1-355)
Sequence (P51685 whole entry): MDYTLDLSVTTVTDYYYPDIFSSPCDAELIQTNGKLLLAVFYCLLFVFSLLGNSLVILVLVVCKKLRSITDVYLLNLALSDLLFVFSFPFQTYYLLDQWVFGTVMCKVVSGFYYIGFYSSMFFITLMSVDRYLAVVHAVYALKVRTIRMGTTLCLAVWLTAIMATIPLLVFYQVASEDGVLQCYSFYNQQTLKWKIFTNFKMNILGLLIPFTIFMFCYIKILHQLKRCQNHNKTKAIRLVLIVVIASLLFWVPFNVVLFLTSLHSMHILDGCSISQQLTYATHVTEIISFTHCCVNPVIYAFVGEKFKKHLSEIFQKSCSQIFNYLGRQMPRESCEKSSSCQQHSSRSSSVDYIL
protocol text: cell-based or functional assay
experimental readout: ADCC (Fold Induction) (fold)

binder: 7B16.005 (CDR H3 alanine scan variant of 7-B16) (antibody, human IgG1, kappa, V domains shown) VH: EVQLVESGGGLVQPKGSLKLSCAASGFTFNTYAMNWVRQAPGKGLEWVARIRSKSNNYATYYADSVKDRFTISRDDSQSMLYLQMNNLKTEDTAMYYCVRGALRYRFFDVWGAGTTVTVSS VL: DIVMTQAEPSVPVTPGESISISCRSSKSLLHSNGNTYLYWFLQRPGQSPQLLIYRMSNLASGVPDRFSGSGSGTAFTLRISRVEAEDVGVYYCMQHLEYPFTFGGGTKLEIKR
measurement: 20
//
binder: 7B16.002 (CDR H3 alanine scan variant of 7-B16) (antibody, human IgG1, kappa, V domains shown) VH: EVQLVESGGGLVQPKGSLKLSCAASGFTFNTYAMNWVRQAPGKGLEWVARIRSKSNNYATYYADSVKDRFTISRDDSQSMLYLQMNNLKTEDTAMYYCARGLLRYRFFDVWGAGTTVTVSS VL: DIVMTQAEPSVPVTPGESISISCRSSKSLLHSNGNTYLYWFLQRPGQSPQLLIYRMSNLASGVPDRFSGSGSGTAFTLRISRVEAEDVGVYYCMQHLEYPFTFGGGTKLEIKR
measurement: 22.9
//
binder: 7B16.010 (CDR H3 alanine scan variant of 7-B16) (antibody, human IgG1, kappa, V domains shown) VH: EVQLVESGGGLVQPKGSLKLSCAASGFTFNTYAMNWVRQAPGKGLEWVARIRSKSNNYATYYADSVKDRFTISRDDSQSMLYLQMNNLKTEDTAMYYCVRGLLRYRAFDVWGAGTTVTVSS VL: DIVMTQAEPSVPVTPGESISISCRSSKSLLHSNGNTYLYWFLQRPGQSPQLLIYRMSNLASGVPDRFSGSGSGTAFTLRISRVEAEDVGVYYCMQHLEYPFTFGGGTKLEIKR
measurement: 1.36
//
binder: 7B16.004 (CDR H3 alanine scan variant of 7-B16) (antibody, human IgG1, kappa, V domains shown) VH: EVQLVESGGGLVQPKGSLKLSCAASGFTFNTYAMNWVRQAPGKGLEWVARIRSKSNNYATYYADSVKDRFTISRDDSQSMLYLQMNNLKTEDTAMYYCVRALLRYRFFDVWGAGTTVTVSS VL: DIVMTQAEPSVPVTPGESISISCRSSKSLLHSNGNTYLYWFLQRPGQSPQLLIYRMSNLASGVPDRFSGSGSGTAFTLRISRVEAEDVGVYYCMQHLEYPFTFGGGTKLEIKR
measurement: 19.5
